The measurements presented in this section are drawn from ChEMBL document CHEMBL5038646.

- target system: Polyunsaturated fatty acid 5-lipoxygenase (Homo sapiens) (UniProt P09917)
- Sequence (P09917 whole entry): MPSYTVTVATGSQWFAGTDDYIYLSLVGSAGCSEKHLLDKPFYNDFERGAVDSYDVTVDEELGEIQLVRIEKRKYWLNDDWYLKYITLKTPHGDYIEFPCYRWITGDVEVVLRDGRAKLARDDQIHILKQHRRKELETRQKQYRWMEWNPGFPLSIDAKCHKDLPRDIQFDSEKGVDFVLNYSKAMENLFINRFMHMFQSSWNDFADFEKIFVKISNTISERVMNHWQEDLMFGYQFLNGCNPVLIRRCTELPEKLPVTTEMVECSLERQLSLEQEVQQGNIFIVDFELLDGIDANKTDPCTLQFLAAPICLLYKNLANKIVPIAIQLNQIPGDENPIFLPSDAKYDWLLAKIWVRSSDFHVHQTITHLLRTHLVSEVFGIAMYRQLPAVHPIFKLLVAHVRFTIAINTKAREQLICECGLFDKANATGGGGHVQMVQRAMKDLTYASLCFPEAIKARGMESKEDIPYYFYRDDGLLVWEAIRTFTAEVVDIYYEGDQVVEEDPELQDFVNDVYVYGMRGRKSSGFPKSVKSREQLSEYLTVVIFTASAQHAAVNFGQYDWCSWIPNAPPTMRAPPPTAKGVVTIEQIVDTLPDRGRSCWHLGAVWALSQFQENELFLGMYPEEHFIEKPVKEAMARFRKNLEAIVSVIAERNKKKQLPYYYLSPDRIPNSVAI
- procedure summary: Inhibition of 5-LO in A23187-stimulated human HEK293 cells assessed as reduction in 5-LO product level at 1 uM preincubated for 5 mins followed by A23187, arachidonic acid addition and measured after 15 mins by RP-HPLC analysis relative to control
- Format: cell-based
Active and inactive are the calls of the source. The calls are words filed in the database; no cut-off is given here.
Mark one answer only. Choices: T (active), F (inactive)

Exercise: Dear all, I need the recorded test outcome for `COC(=O)/C=C/c1cc(OC)c(O)c(OC)c1` , thank you.
Solution: F

Exercise: Dear all, I need the recorded test outcome for `COc1cc(/C=C/C(=O)OC(C)C)cc(OC)c1O` , thank you.
Solution: F

Exercise: Dear all, I need the recorded test outcome for `COc1ccc(CCOC(=O)/C=C/c2cc(OC)c(O)c(OC)c2)cc1` , thank you.
Solution: T

Exercise: Dear all, I need the recorded test outcome for `COc1cc(/C=C/COCc2ccccc2)cc(OC)c1O` , thank you.
Solution: T

Exercise: Dear all, I need the recorded test outcome for `COc1cc(/C=C/C(=O)NCCc2ccccc2)cc(OC)c1O` , thank you.
Solution: F

Exercise: Dear all, I need the recorded test outcome for `COc1cc(/C=C/C(=O)OCCc2cccc(C)c2)cc(OC)c1O` , thank you.
Solution: T
